# Target Under Test: T1, human tumor necrosis factor-α (rHuTNF-alpha, Biosource) (human, UniProt P01375 77-233)
# T1 construct: Bought recombinant protein coated on ELISA plates; The TNFα of the Biacore assay is not described further; also called TNFα; human TNFα
# T1 sequence (P01375 77-233 limits assumed): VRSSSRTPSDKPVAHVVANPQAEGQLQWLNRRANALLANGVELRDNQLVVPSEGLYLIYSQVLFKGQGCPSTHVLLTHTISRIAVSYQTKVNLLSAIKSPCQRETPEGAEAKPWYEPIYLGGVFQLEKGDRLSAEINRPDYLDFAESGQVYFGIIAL
# Protocol Description: solid-phase ELISA, Fab lysate on coated rHuTNF-alpha
Reported Endpoint: binding result

SEQ ID NO 57 (Fab, V domains shown, Fab, E. coli lysate) VH: EVQLTESGGGLVQPGGSLRLSCAASGFIFSNHWMNWVRQAPGKGLEWIGEIRSKSSYSATHYAESVKGRFIISRDDNGTSLYLEMNSLKTEDTAEYYCAQNYYGSTYDYWGQGTLVTVS VL: EIVLTQSPDFQSVTPKEKVTITCRASQFVGSSIHWYQQKPDQSPKLLIKYASESMSGVPSRFSGSGSGTDFTFTISSLEAEDAATYYCQQSHSWPFTFGPGTKVDIK ... binds
SEQ ID NO 52 (Fab, V domains shown, Fab, E. coli lysate) VH: EVQLVESGGGLVQPGGSLRLSCRASGSIFSNHWMNWVRQAPGKGLEWIGEIRSKSSYSATHYAESVKGRFIISRDGNGNSLTLEMNSLKTEDTAEYYCARNYYGSTYDYWGQGTLVTVS VL: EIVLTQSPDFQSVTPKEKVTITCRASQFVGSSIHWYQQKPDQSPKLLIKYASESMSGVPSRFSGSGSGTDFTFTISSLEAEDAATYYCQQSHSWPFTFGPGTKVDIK ... binds
SEQ ID NO 54 (Fab, V domains shown, Fab, E. coli lysate) VH: EVQLTESGGGLVQPGGSLRLSCAASGSIFSNHYMNWVRQAPGKGLEWIGEIRSKSIYGATSYAESVKGRFIISRDGNGNSLYLEMNSLKTEDTAEYYCAQNYYGSTPDYWGQGTLVTVS VL: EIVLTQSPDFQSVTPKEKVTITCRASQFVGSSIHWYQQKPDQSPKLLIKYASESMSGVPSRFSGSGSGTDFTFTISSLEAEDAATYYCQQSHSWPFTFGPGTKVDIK ... binds
